Biological target: UniProt:P08173
Sequence (P08173 1-479): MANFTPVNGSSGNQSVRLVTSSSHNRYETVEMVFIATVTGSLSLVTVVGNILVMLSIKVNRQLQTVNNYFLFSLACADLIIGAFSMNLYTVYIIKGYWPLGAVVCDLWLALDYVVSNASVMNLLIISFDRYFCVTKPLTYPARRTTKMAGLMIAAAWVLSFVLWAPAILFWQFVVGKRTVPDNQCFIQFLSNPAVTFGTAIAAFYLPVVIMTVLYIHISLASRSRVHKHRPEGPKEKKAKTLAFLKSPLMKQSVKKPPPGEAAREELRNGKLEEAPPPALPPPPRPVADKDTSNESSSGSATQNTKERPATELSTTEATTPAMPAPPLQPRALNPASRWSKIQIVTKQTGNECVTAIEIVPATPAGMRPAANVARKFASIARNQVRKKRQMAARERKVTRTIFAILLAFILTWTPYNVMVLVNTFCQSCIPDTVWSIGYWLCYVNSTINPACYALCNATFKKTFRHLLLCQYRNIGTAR
Experiment: human FLIPR-based M4 PAM assay, CHO-K1 cells stably transfected with human M4 receptor and chimeric G-protein Gαqi5
Settings: inflection point (IP) of dose response curve; acetylcholine added at 20% of maximum response; CHO-K1 human M4/Gαqi5, FLIPR Tetra
Note to self: use 1 only for EC50 readings below 100 nM; a reading exactly at 100 nM still gets -1.

* COc1ccc(O[C@@H]2CCN(c3ncnc(Cl)c3C)C[C@@H]2F)cc1 (relative stereo) | -1

QUERY: API: query returns whether the molecule falls strictly under 100 nM in EC50. Query: "COc1ccc(OC2CCN(c3nnc(C(=O)N[C@H]4CCc5ccccc54)cc3C)CC2)cn1"
RESULT: -1

QUERY: API: query returns whether the molecule falls strictly under 100 nM in EC50. Query: "CNc1ncnc(N2CCC(Oc3ccc(OC)nc3)CC2)c1C"
RESULT: -1

QUERY: API: query returns whether the molecule falls strictly under 100 nM in EC50. Query: "CCc1ncnc(N2CCC(Oc3cccc(C#N)c3)CC2)c1C"
RESULT: -1

QUERY: API: query returns whether the molecule falls strictly under 100 nM in EC50. Query: "COc1ccc(OC2CCN(c3nnc(C(=O)NCc4ccn[nH]4)cc3C)CC2)cn1"
RESULT: 1

QUERY: API: query returns whether the molecule falls strictly under 100 nM in EC50. Query: "COc1ccc(OC2CCN(c3nnc(-c4nc(C)no4)cc3C)CC2)cn1"
RESULT: -1

QUERY: API: query returns whether the molecule falls strictly under 100 nM in EC50. Query: "COc1ccc(OC2CCN(c3nnc(C)c(C)c3C#N)CC2)cn1"
RESULT: -1

QUERY: API: query returns whether the molecule falls strictly under 100 nM in EC50. Query: "Cc1nc2ccc(O[C@@H]3CCN(c4nc(CO)nc(Cl)c4C)C[C@@H]3F)cc2o1"
RESULT: 1

QUERY: API: query returns whether the molecule falls strictly under 100 nM in EC50. Query: "COc1ccc(OC2CCN(c3nc(C(N)=O)nc(Cl)c3C)CC2)cn1"
RESULT: -1

QUERY: API: query returns whether the molecule falls strictly under 100 nM in EC50. Query: "COc1ccc(OC2CCN(c3ncnc(Cl)c3C)CC2)cc1"
RESULT: 1
